Tested on: large crabgrass (Digitaria sanguinalis)
Experiment: Test Example 6: foliar treatment, herbicidal activity index
Type: in vivo
Conditions: foliar spray, 0.33 g/ha, 4 days after application, index 0 to 10
For each of the molecules below, state its Herbicidal activity LC.
Enter the number alone.

Request: # get_value(readout='Herbicidal activity LC', item= COC(=O)c1ccccc1Oc1cc(-n2c(=O)cc(C(F)(F)F)n(C)c2=O)c(F)cc1C#N [C, reference compound] )
Response: 2

Request: Using the record for COc1ccccc1Oc1cc(-n2c(=O)cc(C(F)(F)F)n(C)c2=O)c(F)cc1C#N [B, reference compound] , report its Herbicidal activity LC.
Response: 3

Request: # get_value(readout='Herbicidal activity LC', item= COC(=O)COc1ccccc1Oc1cc(-n2c(=O)cc(C(F)(F)F)n(C)c2=O)c(F)cc1C#N [Compound 4-22] )
Response: 9

Request: What value of Herbicidal activity LC has been recorded for this entry: COC(=O)COc1ccccc1Oc1cc(-n2c(=O)cc(C(F)(F)F)n(C)c2=O)c(F)cc1Cl [Compound 3-11]
Response: 8

###

Tested on: wild oat (Avena fatua)
Test: Test Example 6: foliar treatment, herbicidal activity index
Type: in vivo
Details: foliar spray, 0.33 g/ha, 4 days after application, index 0 to 10
Assign Herbicidal activity W to each entry below.
Respond numerically, and do not add a unit to the figure.

Request: API: value(readout=Herbicidal activity W, system=wild oat (Avena fatua)) for record COC(=O)COc1ccccc1Oc1cc(-n2c(=O)cc(C(F)(F)F)n(C)c2=O)c(F)cc1Cl
Response: 8

Request: Look up Herbicidal activity W with wild oat (Avena fatua) for this molecule: COC(=O)c1ccccc1Oc1cc(-n2c(=O)cc(C(F)(F)F)n(C)c2=O)c(F)cc1C#N [C, reference compound]
Response: 1

Request: Notebook entry, wild oat (Avena fatua) assay: Herbicidal activity W of COc1ccccc1Oc1cc(-n2c(=O)cc(C(F)(F)F)n(C)c2=O)c(F)cc1C#N [B, reference compound] = ?
Response: 2

Request: API: value(readout=Herbicidal activity W, system=wild oat (Avena fatua)) for record COC(=O)COc1ccccc1Oc1cc(-n2c(=O)cc(C(F)(F)F)n(C)c2=O)c(F)cc1C#N
Response: 8

###

System: velvetleaf (Abutilon theophrasti)
Experiment: Test Example 1: foliar treatment, herbicidal activity
Format: in vivo
Details: foliar spray, 125 g/ha, 7 days after application
PARAMETER: growth of velvetleaf

Record excerpt, results attached:
COC(=O)C(C)Oc1ccccc1Oc1cc(-n2c(=O)cc(C(F)(F)F)n(C)c2=O)c(F)cc1Cl (stereo not drawn) [Compound 3-1] ... completely controlled
CCOC(=O)C(C)Oc1ccccc1Oc1cc(-n2c(=O)cc(C(F)(F)F)n(C)c2=O)c(F)cc1Cl (stereo not drawn) [Compound 3-2] ... completely controlled
COC(=O)C(C)Oc1ccc(Oc2cc(-n3c(=O)cc(C(F)(F)F)n(C)c3=O)c(F)cc2Cl)cc1 (stereo not drawn) [Compound 1-1] ... completely controlled
COC(=O)COc1ccccc1Oc1cc(-n2c(=O)cc(C(F)(F)F)n(C)c2=O)c(F)cc1Cl [Compound 3-11] ... completely controlled
CCOC(=O)COc1ccccc1Oc1cc(-n2c(=O)cc(C(F)(F)F)n(C)c2=O)c(F)cc1Cl [Compound 3-12] ... completely controlled

Kindly review the next molecule as well.
Request: Fill blank: measured growth of velvetleaf of the molecule COC(=O)C(C)Oc1cccc(Oc2cc(-n3c(=O)cc(C(F)(F)F)n(C)c3=O)c(F)cc2Cl)c1 (stereo not drawn) [Compound 2-1] is ____.
Response: completely controlled

Measured values drawn from patent US6667413B2 for this set.
